pIC50: −log10 of the molar value.
Dear all, I have gathered published pIC50 values for UniProt:P12931; the list follows.

entry smiles | pIC50
Cn1cc(-c2cnc3[nH]cc(C(=O)c4cc(NS(=O)(=O)C5CC5)ccc4F)c3c2)cn1 | ≥ 5.00
O=C(c1c(F)ccc(NS(=O)(=O)c2ccc3nsnc3c2)c1F)c1c[nH]c2ncc(Cl)cc12 | ≥ 5.00
O=C(NCCN1CCOCC1)c1nc2nc(Nc3ccc(F)cc3)ncc2cc1-c1ccccc1Br | 6.80

====

Dear all, I have gathered published IC50 values for Proto-oncogene tyrosine-protein kinase Src (Homo sapiens); the list follows.

entry smiles | IC50
Cc1c(Nc2ccnc3cc(-c4ccc(OCCCN(C)C)cc4)oc23)ccc2[nH]ccc12 | < 0.3 µM
O=C1NC(=O)C2=C1c1cn(c3ccccc13)CCCCCn1cc2c2ccccc21 | > 100 µM
c1cc(-c2nccn3nc(Nc4ccc(N5CCOCC5)cc4)nc23)c2cc[nH]c2c1 | < 0.3 µM
CCCS(=O)(=O)Nc1ccc(F)c(C(=O)c2c[nH]c3ncc(-c4ccc(C(=O)NCC)nc4)cc23)c1F | ≤ 10 µM
